Cited source for all entries: PubChem BioAssay (NCI)

# System: SK-OV-3 ovarian
# method-summary: NCI tumour cell line growth inhibition, 48 h
TGI overview

Would you please look over these solved cases?
>  <compound>
CCN(CC)CCNc1ccc2ncn3c4cc(=O)ccc4c(O)c1c23

>  <readout-name>
TGI

>  <assay-value>
41.9 µM

$$$$
>  <compound>
C[N+](C)(C)CC1CCCC/C1=N\O (configuration not stated)

>  <readout-name>
TGI

>  <assay-value>
> 100 µM

$$$$
>  <compound>
Cc1ccc(S(=O)OC23CC4CC(CC(C4)C2)C3)cc1 (configuration not stated)

>  <readout-name>
TGI

>  <assay-value>
> 100 µM

$$$$
>  <compound>
CC(C)c1cccc(C(C)C)c1OS(=O)(=O)NC(=O)OC(C(F)(F)F)C(F)(F)F

>  <readout-name>
TGI

>  <assay-value>
> 100 µM

$$$$
>  <compound>
O=C(Nc1ccc(I)cc1F)c1cc(I)ccc1O

>  <readout-name>
TGI

>  <assay-value>
> 100 µM

$$$$
>  <compound>
O=C1c2ccccc2-c2c1c1ccccc1c(=O)n2-c1ccccc1

>  <readout-name>
TGI

>  <assay-value>
26.4 µM

$$$$
>  <compound>
C[N+](C)([O-])CCCNc1ccnc2cccc([N+](=O)[O-])c12

>  <readout-name>
TGI

>  <assay-value>
> 100 µM

$$$$
>  <compound>
C#CCCCC(=O)N(C(=O)CS(=O)CC)c1ccccc1 (configuration not stated)

>  <readout-name>
TGI

>  <assay-value>
> 100 µM

$$$$
>  <compound>
Cc1cc(O)c(C(c2ccncc2)c2c(O)cc(C)[nH]c2=O)c(=O)[nH]1

>  <readout-name>
TGI

>  <assay-value>
> 100 µM

$$$$
>  <compound>
COc1ccc(C2=NOP(c3ccccc3)(c3ccccc3)(c3ccccc3)C2)cc1

>  <readout-name>
TGI

>  <assay-value>
> 100 µM

$$$$

In one line, give reported TGI of the entry `N=C(N)c1ccc(-c2ccc(-c3ccc(F)cc3)s2)s1` . 3.57 µM

In one line, give reported TGI of the entry `CCCCNC(=S)Nc1nc(C(=O)NNC(=O)c2ccccc2)cs1` . 35.3 µM

In one line, give reported TGI of the entry `CCCCCCCCCCCCCCCCP(=O)([O-])OCC[N+](C)(C)C` . 24.6 µM

In one line, give reported TGI of the entry `C=CCN1CCC2(CC1)NC(=O)c1ccccc1O2` . > 100 µM

In one line, give reported TGI of the entry `CC(/C=N/NC1=NCCCN1)=N\NC1=NCCCN1` . > 100 µM

In one line, give reported TGI of the entry `COc1ccc2c(c1)CC[C@@H]1[C@@H]2CC[C@]2(C)C=C(/C=C/C(=O)c3ccccc3)C[C@@H]12` . 38.9 µM

In one line, give reported TGI of the entry COc1cc([C@@H]2c3cc4c(cc3C(OC3O[C@@H]5COC(C)O[C@H]5[C@H](O)[C@H]3O)C3COC(=O)[C@@H]32)OCO4)cc(OC)c1O (some centres not stated) . 14.2 µM

In one line, give reported TGI of the entry `CCOC(=S)SCN1C(=O)c2ccccc2S1(=O)=O` . > 100 µM

In one line, give reported TGI of the entry OC(CN1CCCCC1)c1ccc(/C=C/c2ccc(Cl)cc2)cc1 (configuration not stated) . > 100 µM

In one line, give reported TGI of the entry `Nc1ccc(C(=O)N/C(=C\c2cccc([N+](=O)[O-])c2)c2nc3c4c(ccc3[nH]2)C(=O)c2ccccc2C4=O)cc1` . > 100 µM

In one line, give reported TGI of the entry OC(c1ccccc1)(c1cccnc1)C(O)(c1ccccc1)c1cccnc1 (configuration not stated) . > 100 µM

In one line, give reported TGI of the entry `CC(=O)N1CCN(CCOc2ccc(C3CCN(C4=Nn5c(nnc5C(F)(F)F)CC4)CC3)cc2)CC1` . > 100 µM

---

# Tested on: M14 melanoma
# method-summary: NCI tumour cell line growth inhibition, 48 h; in the data active means GI50 below about 0.43 µM; inactive means the rest
Tick one outcome: active, inactive

>  <smiles-record>
Cc1ccc2c(c1)C(=O)c1c-2n(CCCN=[N+]=[N-])c(=O)c2cc([N+](=O)[O-])ccc12

>  <label-value>
inactive

$$$$
>  <smiles-record>
O=C1c2ccn(CCCCN3CCC(O)CC3)c2C(=O)c2c1c(O)c1ccccc1c2O

>  <label-value>
inactive

$$$$
>  <smiles-record>
C=CCCC(=O)N1C=CC(=O)[C@H](O)[C@@H]1/C=C/c1ccccc1

>  <label-value>
inactive

$$$$
>  <smiles-record>
COc1ccc(-c2c(N)n[nH]c2-c2cc(OC)c(OC)c(OC)c2)cc1

>  <label-value>
active

$$$$

Here's the next entry for you.
For this molecule, state the assay outcome: `O=S(=O)(O)ONC1=NCCN1` inactive

---

TGI overview
# System: SNB-19 CNS
# method-summary: NCI tumour cell line growth inhibition, 48 h
Reply numerically in µM, unit not repeated.

>  <molecule>
CCCCCc1c(C)[nH]c(/C=C2\N=C(c3ccc[nH]3)C=C2OCc2ccccc2)c1C

>  <TGI, µM>
1.96

$$$$
>  <molecule>
O=C1c2cc([N+](=O)[O-])sc2C(=O)c2ccsc21

>  <TGI, µM>
3.33

$$$$
>  <molecule>
OC(COc1cccc2ccccc12)CN1CCN(c2ccccc2Cl)CC1 (stereo not given)

>  <TGI, µM>
30.2

$$$$

In one line, give reported TGI of the entry `Oc1ccc(Cl)cc1-c1cc(-c2ccc(F)cc2)n[nH]1` . 8.27

In one line, give reported TGI of the entry `ClCC#CCSc1ncnc2c1ncn2CC#CCCl` . 3.61

---

# Test system: MALME-3M melanoma
# method-summary: NCI tumour cell line growth inhibition, 48 h
TGI overview
Reply numerically in µM, unit not repeated.

>  <compound>
Cc1cc(O)c(C(C)C)cc1N=Cc1ccccc1O

>  <TGI / µM>
28.4

$$$$
>  <compound>
O=P1(c2ccccc2)C2=CCC=CC2C(c2ccccc2)N1Cc1ccccc1 (stereo unspecified)

>  <TGI / µM>
32.9

$$$$
>  <compound>
NS(=O)(=O)c1ccc(NC(=O)COC(=O)c2cccc3c(=O)c4ccccc4[nH]c23)cc1

>  <TGI / µM>
50.5

$$$$

Consider the record given below.
In one line, give reported TGI of the entry `Cc1c(C(=O)O[C@H]2[C@@H]3[C@H](C)CC[C@H]3[C@]3(C)O[C@@]2(C2CCCCC2)C[C@H]3OC(=O)CO)ccc2ccccc12` . 14.5

---

TGI overview
# Test system: SK-MEL-28 melanoma
# method-summary: NCI tumour cell line growth inhibition, 48 h
Reply numerically in µM, unit not repeated.

Would you please look over these solved cases?
>  <smiles-record>
CCN(CC)CCNc1ccc2ncn3c4cc(=O)ccc4c(O)c1c23

>  <unit-tag>
µM

>  <TGI>
16.9

$$$$
>  <smiles-record>
O=C(CCl)Nc1cc(O)c2c(c1)C(=O)c1cccc(O)c1C2=O

>  <unit-tag>
µM

>  <TGI>
8.95

$$$$
>  <smiles-record>
COc1ccc2nc3cccc(C(=O)NCCN(C)C)c3nc2c1

>  <unit-tag>
µM

>  <TGI>
4.88

$$$$

Consider the record given below.
In one line, give reported TGI of the entry `CCN1CCNc2c3cc(OC)ccc3nc3c([N+](=O)[O-])ccc1c23` . 5.93

---

# Test system: NCI-H23 lung
# method-summary: NCI tumour cell line growth inhibition, 48 h
readout-name: TGI

Would you please look over these solved cases?
>  <molecule>
CC1=C(C(=O)Nc2ccccc2)C(c2ccc(C(C)C)cc2)C(C(=O)Nc2ccccc2)=C(C)N1

>  <study-system>
NCI-H23 lung

>  <assay-value>
> 58.5 µM

$$$$
>  <molecule>
O=C1OC(=O)C2C1C(c1ccccc1[N+](=O)[O-])C=C(c1ccco1)N2c1ccncc1 (configuration not stated)

>  <study-system>
NCI-H23 lung

>  <assay-value>
26.2 µM

$$$$
>  <molecule>
C#CCOC(=O)C(N)CCSC (configuration not stated)

>  <study-system>
NCI-H23 lung

>  <assay-value>
> 100 µM

$$$$
>  <molecule>
C#CCN(Cc1nc2cc(C(F)(F)F)ccc2nc1-c1ccccc1)c1ccc(F)c(F)c1

>  <study-system>
NCI-H23 lung

>  <assay-value>
> 100 µM

$$$$
>  <molecule>
CCN(CC)CCNc1ccc2ncn3c4cc(=O)ccc4c(O)c1c23

>  <study-system>
NCI-H23 lung

>  <assay-value>
14.6 µM

$$$$
>  <molecule>
C=CC(Br)(CBr)CCC(Br)C(C)C (configuration not stated)

>  <study-system>
NCI-H23 lung

>  <assay-value>
20.8 µM

$$$$
>  <molecule>
CC1(C)[C@@H](OC(N)=O)C=C[C@]2(C=O)[C@H]3CC[C@]4(C)[C@@H](c5ccc(=O)oc5)[C@@H](Cl)C[C@]4(O)C3=CC[C@@H]12

>  <study-system>
NCI-H23 lung

>  <assay-value>
0.0102 µM

$$$$
>  <molecule>
C=CCCC(=O)N1C=CC(=O)[C@H](O)[C@@H]1/C=C/c1ccccc1

>  <study-system>
NCI-H23 lung

>  <assay-value>
> 32.5 µM

$$$$

In one line, give reported TGI of the entry C/C=C1\CC(C(=O)OCC)CCCCCCCCCCC1=O (configuration not stated) . > 100 µM

In one line, give reported TGI of the entry CN(C)CC1CCCC/C1=N/OC(=O)c1ccc(Cl)c(Cl)c1 (configuration not stated) . > 100 µM

In one line, give reported TGI of the entry `COc1ccccc1N=C1SCCN1C(=S)Nc1ccc(S(=O)(=O)/N=C/N(C)C)cc1` . 95.9 µM

In one line, give reported TGI of the entry `O=C(NN=C1CCCCC1)NN=C1CCCCC1` . > 100 µM

In one line, give reported TGI of the entry `N#C/C(=C\c1ccccc1Br)C(=O)c1ccccc1` . > 62.2 µM
